Tested on: B2-CLL lymphocytes
Assay: Survival / cell death of B2-CLL lymphocytes from patients
Type: cell-based, human
Details: LLC B-cells; read-out: Cell death induction
QUANTITY NAME: pIC50
The meaning of pIC50 here: minus log10 of the concentration in molar units.

Task item: # pIC50 lookup, item CC[C@H](CO)Nc1cc(NCc2ccc(-c3ccccn3)cc2)c2ncn(C(C)C)c2n1 [(R)-perharidine C]
Reply: 6.55

###

Biological target: CK1δ/ε
Experiment: CK1 kinase assay
Assay type: biochemical, porcine
Conditions: Table 5; read-out: CK1
Measured IC50 of individual entries
Please reply with the bare figure in µM and do not write the unit itself.

Known IC50 results, listed for orientation:
>  <COMPOUND>
CC[C@@H](CO)Nc1cc(NCc2ccc(-c3ccccn3)cc2)c2ncn(C(C)C)c2n1 [(S)-perharidine D]

>  <MEASURE UNIT>
µM

>  <IC50>
1.9

$$$$
>  <COMPOUND>
CC[C@H](CO)Nc1cc(NCc2ccc(-c3ccccn3)cc2)c2ncn(C(C)C)c2n1 [(R)-perharidine C]

>  <MEASURE UNIT>
µM

>  <IC50>
1.1

$$$$
>  <COMPOUND>
CC[C@@H](CO)Nc1cc(NCc2ccccc2)c2ncn(C(C)C)c2n1 [(S)-perharidine B]

>  <MEASURE UNIT>
µM

>  <IC50>
4.8

$$$$

Task item: For CC[C@H](CO)Nc1cc(NCc2ccccc2)c2ncn(C(C)C)c2n1 [(R)-perharidine A] , what is its reported IC50?
Reply: 11

###

Target: CDK9/cyclin T (Homo sapiens, UniProt P50750)
Construct: made in house; host or cells: insect cells
Sequence (P50750 whole entry): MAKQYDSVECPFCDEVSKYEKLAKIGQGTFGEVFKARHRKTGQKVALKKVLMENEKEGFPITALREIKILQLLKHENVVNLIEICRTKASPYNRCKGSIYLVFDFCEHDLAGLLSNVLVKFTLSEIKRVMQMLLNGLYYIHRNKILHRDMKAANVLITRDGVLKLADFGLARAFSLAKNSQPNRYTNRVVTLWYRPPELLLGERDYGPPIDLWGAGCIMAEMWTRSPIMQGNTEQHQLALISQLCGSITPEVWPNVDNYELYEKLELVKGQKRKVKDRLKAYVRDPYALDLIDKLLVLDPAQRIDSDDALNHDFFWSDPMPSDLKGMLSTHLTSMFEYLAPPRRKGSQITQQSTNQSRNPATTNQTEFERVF
Sequence (O60563 whole entry partner): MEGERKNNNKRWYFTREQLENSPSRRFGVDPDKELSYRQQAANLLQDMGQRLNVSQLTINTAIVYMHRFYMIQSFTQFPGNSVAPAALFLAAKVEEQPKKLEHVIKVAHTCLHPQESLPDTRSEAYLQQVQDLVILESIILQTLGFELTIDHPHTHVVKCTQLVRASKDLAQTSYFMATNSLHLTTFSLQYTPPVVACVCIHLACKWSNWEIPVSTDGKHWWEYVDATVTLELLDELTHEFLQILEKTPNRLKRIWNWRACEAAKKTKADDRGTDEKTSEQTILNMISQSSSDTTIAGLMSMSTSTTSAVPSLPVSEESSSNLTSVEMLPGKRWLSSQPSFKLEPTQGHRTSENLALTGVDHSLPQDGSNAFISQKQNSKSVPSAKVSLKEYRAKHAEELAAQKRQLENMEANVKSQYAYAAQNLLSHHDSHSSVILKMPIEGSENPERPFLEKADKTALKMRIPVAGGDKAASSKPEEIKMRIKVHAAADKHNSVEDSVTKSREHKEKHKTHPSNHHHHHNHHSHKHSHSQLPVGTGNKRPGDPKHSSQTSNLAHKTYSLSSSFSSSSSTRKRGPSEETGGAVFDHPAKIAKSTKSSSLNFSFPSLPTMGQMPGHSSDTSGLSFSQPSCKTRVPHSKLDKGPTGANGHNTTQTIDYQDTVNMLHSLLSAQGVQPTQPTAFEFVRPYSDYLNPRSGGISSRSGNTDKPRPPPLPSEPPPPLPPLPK
Experiment: CDK9/cyclin T kinase assay
Type: biochemical
Conditions: read-out: Inhibition of CDK9/cyclin T, IC50
Method: Blank values were subtracted and activities expressed in % of the maximal activity, i.e. in the absence of inhibitors. Controls were performed with appropriate dilutions of dimethylsulfoxide.
QUANTITY NAME: IC50 (nM)
Only the number, expressed in nM, is required.

Task item: // lookup IC50 for CC(C)n1cnc2c(NCc3ccc(-c4ccccn4)cc3)cc(NC(CO)[C@@H](C)O)nc21 (stereo in doubt)
Reply: 140

###

Test system: HCT116 (Spheroids)
Experiment: Cell survival, HCT116 (Spheroids)
Type: cell-based
Details: Homo sapiens, HCT-116; Table 6
pIC50 listing for selected molecules.
Answer as the number alone; pIC50 is minus log10 of concentration in mol/L.

>  <MOLECULE>
CC[C@H](CO)Nc1cc(NCc2ccccc2)c2ncn(C(C)C)c2n1 [(R)-perharidine A]

>  <QUANTITY NAME>
pIC50

>  <OBSERVED VALUE>
5.00

$$$$

// switching to the query molecule
Task item: Which pIC50 reading was recorded for the molecule CC[C@H](CO)Nc1cc(NCc2ccc(-c3ccccn3)cc2)c2ncn(C(C)C)c2n1 [(R)-perharidine C] ?
Reply: 6.46

###

Biological target: Erk2 (Homo sapiens)
Sequence (P28482 whole entry, species assumed): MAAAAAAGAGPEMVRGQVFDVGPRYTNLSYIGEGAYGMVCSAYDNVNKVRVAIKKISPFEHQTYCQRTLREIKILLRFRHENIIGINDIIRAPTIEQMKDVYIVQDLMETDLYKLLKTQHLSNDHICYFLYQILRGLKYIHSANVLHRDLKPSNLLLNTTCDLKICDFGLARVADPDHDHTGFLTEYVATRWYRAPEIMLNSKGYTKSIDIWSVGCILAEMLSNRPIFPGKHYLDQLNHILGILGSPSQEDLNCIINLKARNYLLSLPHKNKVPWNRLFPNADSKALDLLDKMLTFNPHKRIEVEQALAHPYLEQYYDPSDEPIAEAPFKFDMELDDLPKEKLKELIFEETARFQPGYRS
Overview of reported IC50 across a group of molecules:
Kindly provide the numeric value in µM only, without the unit symbol.

Example entries and their recorded answers appear below.
>  <MOLECULE>
CC[C@@H](CO)Nc1cc(NCc2ccc(-c3ccccn3)cc2)c2ncn(C(C)C)c2n1 [(S)-perharidine D]

>  <MEASURE UNIT>
µM

>  <OBSERVED VALUE>
9

$$$$
>  <MOLECULE>
CC[C@H](CO)Nc1cc(NCc2ccccc2)c2ncn(C(C)C)c2n1 [(R)-perharidine A]

>  <MEASURE UNIT>
µM

>  <OBSERVED VALUE>
7

$$$$
>  <MOLECULE>
CC[C@H](CO)Nc1cc(NCc2ccc(-c3ccccn3)cc2)c2ncn(C(C)C)c2n1 [(R)-perharidine C]

>  <MEASURE UNIT>
µM

>  <OBSERVED VALUE>
22

$$$$

Okay, now this molecule:
Task item: Query (molecule): CC[C@@H](CO)Nc1cc(NCc2ccccc2)c2ncn(C(C)C)c2n1 [(S)-perharidine B] ; field requested: IC50
Reply: 9
